- Target Entity: Amyloid-beta precursor protein (Homo sapiens)
- Sequence (P05067 whole entry): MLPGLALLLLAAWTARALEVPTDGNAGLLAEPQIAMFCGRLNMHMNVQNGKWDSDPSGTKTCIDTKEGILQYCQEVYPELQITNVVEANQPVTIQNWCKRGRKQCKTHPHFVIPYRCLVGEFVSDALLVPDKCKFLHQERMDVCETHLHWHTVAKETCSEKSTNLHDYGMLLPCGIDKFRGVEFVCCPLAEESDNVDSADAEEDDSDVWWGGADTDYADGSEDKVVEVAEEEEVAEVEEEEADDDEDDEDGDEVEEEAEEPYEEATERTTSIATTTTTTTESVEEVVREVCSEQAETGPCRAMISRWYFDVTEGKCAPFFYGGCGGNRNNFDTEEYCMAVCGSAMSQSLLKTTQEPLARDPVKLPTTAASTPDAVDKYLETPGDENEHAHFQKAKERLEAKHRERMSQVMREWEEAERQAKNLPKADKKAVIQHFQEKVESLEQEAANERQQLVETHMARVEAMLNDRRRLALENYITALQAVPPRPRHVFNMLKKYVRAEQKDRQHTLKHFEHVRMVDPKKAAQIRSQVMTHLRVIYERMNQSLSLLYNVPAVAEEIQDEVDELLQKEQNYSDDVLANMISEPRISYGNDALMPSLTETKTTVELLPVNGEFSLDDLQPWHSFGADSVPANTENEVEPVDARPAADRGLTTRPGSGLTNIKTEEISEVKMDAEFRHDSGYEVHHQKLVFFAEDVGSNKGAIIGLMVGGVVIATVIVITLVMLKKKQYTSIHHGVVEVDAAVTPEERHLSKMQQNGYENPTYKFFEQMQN
- Measurement Protocol: Binding affinity to human amyloid beta plaque
Property Label: pIC50
Hey, just a heads up that pIC50 is the negative log base 10 of the concentration in molar.

What does the record list as pIC50 for `Cn1ncc2cc(-c3nc4ccc(F)nc4o3)ccc21` ?
7.31

What does the record list as pIC50 for `CN1CCc2cc(-c3nc4ccc(F)nc4o3)cnc21` ?
7.33

What does the record list as pIC50 for `Fc1ccc2nc(-c3cnc4[nH]ccc4c3)oc2n1` ?
7.59

What does the record list as pIC50 for `CNc1ccc(-c2nc3ccc(F)nc3o2)cn1` ?
6.99

What does the record list as pIC50 for `CN(C)c1ccc(-c2nc3ccc(F)nc3o2)cn1` ?
7.38

What does the record list as pIC50 for `Cn1ncc2cc(-c3nc4ccc(F)nc4o3)cnc21` ?
7.52

###

- Target Entity: Amyloid-beta precursor protein (Homo sapiens)
- Measurement Protocol: […] amyloid beta plaque in cortex homogenate isolated from Alzheimer disease patient after 90 mins by scintillation counting
Property Label: Kd (nM)
Numbers only; they are read as nM.

What Kd appears in the records for this compound with Amyloid-beta precursor protein (Homo sapiens)? `[3H]C([3H])([3H])N(C)c1ccc(-c2nc3ccc(F)nc3o2)cc1`
4.5

What Kd appears in the records for this compound with Amyloid-beta precursor protein (Homo sapiens)? `[3H]C([3H])([3H])n1ccc2cc(-c3nc4ccc(F)nc4o3)cnc21`
9.6

What Kd appears in the records for this compound with Amyloid-beta precursor protein (Homo sapiens)? `[3H]C([3H])([3H])n1ccc2cc(-c3nc4ccc(F)nc4o3)ccc21`
6.4

###

- System: P-gp (Homo sapiens)
- Measurement Protocol: Activity at human P-gp expressed in pig LLC-PK1 cells assessed as passive apparent permeability
Property Label: Papp

What does the record list as Papp for `Cn1cnc2cc(-c3nc4ccc(F)nc4o3)ccc21` ?
> 20 ×10⁻⁶ cm/s

What does the record list as Papp for `Cn1ccc2cc(-c3nc4ccc(F)nc4o3)ncc21` ?
> 20 ×10⁻⁶ cm/s

What does the record list as Papp for `Fc1ccc2nc(-c3ccc4cc[nH]c4c3)oc2n1` ?
> 20 ×10⁻⁶ cm/s

What does the record list as Papp for `CN1CCc2cc(-c3nc4ccc(F)nc4o3)cnc21` ?
> 20 ×10⁻⁶ cm/s

What does the record list as Papp for `CNc1ccc(-c2nc3ccc(F)nc3o2)cn1` ?
> 20 ×10⁻⁶ cm/s

What does the record list as Papp for `Fc1ccc2nc(-c3ccc4[nH]ccc4c3)oc2n1` ?
> 20 ×10⁻⁶ cm/s

What does the record list as Papp for `COc1ccc(-c2nc3ccc(F)nc3o2)cc1` ?
> 20 ×10⁻⁶ cm/s
